biological target: HLA-B*51:01; test: IEDB peptide-MHC binding, purified MHC/competitive/fluorescence; filed as Kd, often an IC50 or EC50 that approximates it; bounds were set here for any values at or beyond the usual limits of such assays; conditions: source organism: Bacillus anthracis str. A0488
measurement.label: Kd

IN: Supply recorded Kd for KLWASFFQG here.
OUT: ≥ 20 µM

---

biological target: HLA-B*15:01; test: IEDB peptide-MHC binding, purified MHC/competitive/fluorescence; filed as Kd, often an IC50 or EC50 that approximates it; bounds were set here for any values at or beyond the usual limits of such assays; conditions: source organism: Influenza A virus (A/equine/NewMarket/D64/79(H3N8))
measurement.label: Kd (nM)
Record the value in nM, omitting the unit from your answer.

IN: Supply recorded Kd for GIFGAIAGF here.
OUT: 288
